The measured values listed here are drawn from ChEMBL document CHEMBL1135488.

- run-description: clinical
- measurement-context: human, in vivo, iv
- Description: Volume of distribution in man (IV dose)
Outcome label depends on Vd relative to 5 L/kg: at/above gives rule met, below gives rule not met.

[
  {
    "molecule": "COc1cc(Cc2cnc(N)nc2N)cc(OC)c1OC [TRIMETHOPRIM]",
    "category-label": "rule not met"
  },
  {
    "molecule": "O=C(N[C@H](CO)[C@H](O)c1ccc([N+](=O)[O-])cc1)C(Cl)Cl [CHLORAMPHENICOL]",
    "category-label": "rule not met"
  },
  {
    "molecule": "CN1C(=O)C(O)N=C(c2ccccc2Cl)c2cc(Cl)ccc21 (centres undefined) [LORMETAZEPAM]",
    "category-label": "rule met"
  },
  {
    "molecule": "CN(C)CCCN1c2ccccc2CCc2ccccc21 [IMIPRAMINE]",
    "category-label": "rule met"
  },
  {
    "molecule": "Cc1ccc(O)c([C@H](CCN(C(C)C)C(C)C)c2ccccc2)c1 [TOLTERODINE]",
    "category-label": "rule not met"
  },
  {
    "molecule": "O=C1Nc2ccc(Cl)cc2C(c2ccccc2Cl)=NC1O (racemic) [LORAZEPAM]",
    "category-label": "rule not met"
  },
  {
    "molecule": "COC(=O)[C@H]1[C@@H](OC(=O)c2ccccc2)C[C@@H]2CC[C@H]1N2C [COCAINE]",
    "category-label": "rule not met"
  },
  {
    "molecule": "CN/C(=N/CCSCc1nc[nH]c1C)NC#N [CIMETIDINE]",
    "category-label": "rule not met"
  },
  {
    "molecule": "CCCCCc1cc(O)c2c(c1)OC(C)(C)[C@@H]1CCC(C)=C[C@@H]21 [DRONABINOL]",
    "category-label": "rule met"
  },
  {
    "molecule": "CN/C(=C\\[N+](=O)[O-])NCCSCc1csc(CN(C)C)n1 [NIZATIDINE]",
    "category-label": "rule not met"
  },
  {
    "molecule": "C[C@]12C=CC(=O)C=C1CC[C@@H]1[C@@H]2[C@@H](O)C[C@@]2(C)[C@H]1CC[C@]2(O)C(=O)CO [PREDNISOLONE]",
    "category-label": "rule not met"
  },
  {
    "molecule": "C#CCCCC(=O)c1cc(C(C)(C)C)c(O)c(C(C)(C)C)c1 [TEBUFELONE]",
    "category-label": "rule met"
  },
  {
    "molecule": "CN1CCN(C2=Nc3cc(Cl)ccc3Nc3ccccc32)CC1 [CLOZAPINE]",
    "category-label": "rule met"
  },
  {
    "molecule": "CC(C)(C)NCC(O)c1cc(O)cc(O)c1 (centres undefined) [TERBUTALINE]",
    "category-label": "rule not met"
  },
  {
    "molecule": "CN(C)CCCN1c2ccccc2Sc2ccc(Cl)cc21 [CHLORPROMAZINE]",
    "category-label": "rule met"
  },
  {
    "molecule": "COc1ccc2[nH]c([S+]([O-])Cc3ncc(C)c(OC)c3C)nc2c1 (racemic) [OMEPRAZOLE]",
    "category-label": "rule not met"
  },
  {
    "molecule": "Clc1cccc(Cl)c1N=C1NCCN1 [CLONIDINE]",
    "category-label": "rule not met"
  },
  {
    "molecule": "C[C@]12CC[C@@H]3c4ccc(O)cc4CC[C@H]3[C@@H]1CC[C@@H]2O [ESTRADIOL]",
    "category-label": "rule not met"
  }
]

* * *

- run-description: in vitro
- measurement-context: tissues
- Description: Unbound fraction (tissues)
The following ranges of fraction unbound define the classes used here: zone 1 (below 0.01), zone 2 (0.01 to below 0.2), zone 3 (0.2 or more)

[
  {
    "compound": "O=C(NCC1CCCCN1)c1cc(OCC(F)(F)F)ccc1OCC(F)(F)F (centres undefined) [FLECAINIDE]",
    "category-label": "zone 2"
  },
  {
    "compound": "OC(Cn1cncn1)(Cn1cncn1)c1ccc(F)cc1F",
    "category-label": "zone 3"
  },
  {
    "compound": "CC(C)(C)NCC(O)c1cc(O)cc(O)c1 (centres undefined)",
    "category-label": "zone 2"
  },
  {
    "compound": "COC(=O)[C@H]1[C@@H](OC(=O)c2ccccc2)C[C@@H]2CC[C@H]1N2C",
    "category-label": "zone 2"
  },
  {
    "compound": "Cc1ncc([N+](=O)[O-])n1CCO",
    "category-label": "zone 3"
  },
  {
    "compound": "C#CCCCC(=O)c1cc(C(C)(C)C)c(O)c(C(C)(C)C)c1",
    "category-label": "zone 1"
  },
  {
    "compound": "CCc1nn(CCCN2CCN(c3cccc(Cl)c3)CC2)c(=O)n1CCOc1ccccc1",
    "category-label": "zone 1"
  },
  {
    "compound": "Cc1ccc(O)c([C@H](CCN(C(C)C)C(C)C)c2ccccc2)c1",
    "category-label": "zone 2"
  },
  {
    "compound": "CN/C(=C\\[N+](=O)[O-])NCCSCc1csc(CN(C)C)n1",
    "category-label": "zone 2"
  }
]

* * *

The compounds listed here are annotated with their Fraction ionised.
- measurement-context: pH 7.4
- Description: Fraction ionized (pH 7.4)
metric: Fraction ionised

[
  {
    "compound": "O=C(CCCN1CCC(O)(c2ccc(Cl)cc2)CC1)c1ccc(F)cc1",
    "quantitative-result": 0.947
  },
  {
    "compound": "CCCC(=O)Nc1ccc(OCC(O)CNC(C)C)c(C(C)=O)c1 (stereo not given)",
    "quantitative-result": 0.995
  },
  {
    "compound": "O=C(N[C@H](CO)[C@H](O)c1ccc([N+](=O)[O-])cc1)C(Cl)Cl",
    "quantitative-result": 0
  },
  {
    "compound": "CN1CCN(C2=Nc3cc(Cl)ccc3Nc3ccccc32)CC1",
    "quantitative-result": 0.629
  },
  {
    "compound": "CN1C(=O)C(O)N=C(c2ccccc2Cl)c2cc(Cl)ccc21 (stereo not given)",
    "quantitative-result": 0
  },
  {
    "compound": "CC(=O)O[C@H]1C(=O)[C@@]2(C)[C@H]([C@H](OC(=O)c3ccccc3)[C@]3(O)C[C@H](OC(=O)[C@H](O)[C@@H](NC(=O)c4ccccc4)c4ccccc4)C(C)=C1C3(C)C)[C@]1(OC(C)=O)CO[C@@H]1C[C@@H]2O",
    "quantitative-result": 0
  },
  {
    "compound": "CN(C)CCCN1c2ccccc2Sc2ccc(Cl)cc21",
    "quantitative-result": 0.986
  },
  {
    "compound": "CN/C(=N/CCSCc1nc[nH]c1C)NC#N",
    "quantitative-result": 0.271
  },
  {
    "compound": "O=C1Nc2ccc(Cl)cc2C(c2ccccc2Cl)=NC1O (racemic)",
    "quantitative-result": 0
  },
  {
    "compound": "CN1CCC[C@H]1c1cccnc1",
    "quantitative-result": 0.834
  },
  {
    "compound": "COc1cc2c(c(OC)c1OC)-c1ccc(OC)c(=O)cc1[C@@H](NC(C)=O)CC2",
    "quantitative-result": 0
  },
  {
    "compound": "O=c1n(CCCN2CCN(c3cccc(Cl)c3)CC2)nc2ccccn12",
    "quantitative-result": 0.197
  },
  {
    "compound": "COC(=O)[C@H]1[C@@H](OC(=O)c2ccccc2)C[C@@H]2CC[C@H]1N2C",
    "quantitative-result": 0.952
  },
  {
    "compound": "Cc1ccc(O)c([C@H](CCN(C(C)C)C(C)C)c2ccccc2)c1",
    "quantitative-result": 0.997
  },
  {
    "compound": "CN(C)CCC(c1ccc(Cl)cc1)c1ccccn1 (stereo not given)",
    "quantitative-result": 0.986
  }
]

* * *

- run-description: in vitro
- measurement-context: tissues
The compounds listed here are annotated with their fraction unbound.
metric: fraction unbound

[
  {
    "compound": "COc1ccc2[nH]c([S+]([O-])Cc3ncc(C)c(OC)c3C)nc2c1 (racemic)",
    "quantitative-result": 0.082
  },
  {
    "compound": "O=C1Nc2ccc(Cl)cc2C(c2ccccc2Cl)=NC1O (racemic)",
    "quantitative-result": 0.029
  },
  {
    "compound": "CC(=O)Nc1ccc(O)cc1",
    "quantitative-result": 0.503
  },
  {
    "compound": "COc1ccc([C@@H]2Sc3ccccc3N(CCN(C)C)C(=O)[C@@H]2OC(C)=O)cc1",
    "quantitative-result": 0.028
  },
  {
    "compound": "C=CCc1ccccc1OCC(O)CNC(C)C (stereo not drawn)",
    "quantitative-result": 0.028
  },
  {
    "compound": "CNC(=C[N+](=O)[O-])NCCSCc1ccc(CN(C)C)o1",
    "quantitative-result": 0.289
  },
  {
    "compound": "C=C[C@H]1C[N@@]2CC[C@H]1C[C@@H]2[C@@H](O)c1ccnc2ccc(OC)cc12",
    "quantitative-result": 0.019
  },
  {
    "compound": "CCCCCc1cc(O)c2c(c1)OC(C)(C)[C@@H]1CCC(C)=C[C@@H]21",
    "quantitative-result": 0.001
  },
  {
    "compound": "CN1C(=O)C(O)N=C(c2ccccc2Cl)c2cc(Cl)ccc21 (stereo not drawn)",
    "quantitative-result": 0.007
  },
  {
    "compound": "Oc1ncnc2[nH]ncc12",
    "quantitative-result": 0.881
  },
  {
    "compound": "CN1CCCC(n2nc(Cc3ccc(Cl)cc3)c3ccccc3c2=O)CC1 (stereo not drawn)",
    "quantitative-result": 0.004
  },
  {
    "compound": "CNS(=O)(=O)Cc1ccc2[nH]cc(CCN(C)C)c2c1",
    "quantitative-result": 0.661
  },
  {
    "compound": "O=C1CN=C(c2ccccn2)c2cc(Br)ccc2N1",
    "quantitative-result": 0.146
  }
]
